- System: SNB-19
- protocol: NCI tumour cell line growth inhibition, 48 h
Active and inactive are the calls of the source. Rule as the data show it: active = GI50 up to about 1.1 µM and inactive = higher. *1 amine or outer side, *2 acyl side, *3 side chain or, on linkers, in order; H or OH if unused. Where a SMILES comes first, the peptide text is derived from it. Bridges are numbered along the chain shown (N, C = ends). [ ]: non-standard residue; d: D form. The star is where a group is joined. ξ: configuration not given here. ξOrn(4,5-diOH) = O=C(C(CC(O)C(O)N[*:3])N[*:1])[*:2]; ξhTyr(βξ-OH,γξ-OH) = NC(C(=O)O)C(O)C(O)c1ccc(O)cc1; ξPro(3ξ-OH,4ξ-Me) = CC1CNC(C(=O)O)C1O; X55 = CCCCC/C=C/C/C=C\CCCCCCCC(=O)*; Hyp = O=C(O)[CH]1C[CH](O)CN1
Here the recorded GI50 is given for each entry.

// below: answered compounds
compound | target_or_system | GI50
O=C(CSc1nnc(-c2ccc(/N=C\c3ccc(Cl)cc3)cc2)o1)Nc1ccc(Cl)cc1Cl | SNB-19 | 31 µM (inactive)
CCCCC/C=C/C/C=C\CCCCCCCC(=O)NC1CC(O)C(O)NC(=O)C2C(O)C(C)CN2C(=O)C(C(C)O)NC(=O)C(C(O)C(O)c2ccc(O)cc2)NC(=O)C2CC(O)CN2C(=O)C(C(C)O)NC1=O (stereo not drawn) (X55-[ξOrn(4,5-diOH)]T[Hyp][ξhTyr(βξ-OH,γξ-OH)]T[ξPro(3ξ-OH,4ξ-Me)]; lactam 1-C; configuration not given here) | SNB-19 | > 100 µM (inactive)
CCOC(=O)CCC(NC(=O)c1ccc(NCc2ccc3nc(-c4ccccc4)c(Cl)nc3c2)c2ccccc12)C(=O)OCC (stereo not given) | SNB-19 | > 100 µM (inactive)

Ask | Tell me the measured GI50 of N#CCCN(CCC#N)c1ccc(/C=C2\N=C(COc3ccc(Cl)cc3Cl)OC2=O)cc1 , please.
Reply | > 100 µM (inactive)

Ask | Follow-up item: COc1ccc(-n2sc3ncc([N+](=O)[O-])cc3c2=O)cc1
Reply | > 100 µM (inactive)

Ask | Follow-up item: CCOC(=O)c1ccc(Nc2nc3cc(C(F)(F)F)ccc3nc2-c2ccccc2)cc1
Reply | 29.2 µM (inactive)

Ask | Follow-up item: Cc1cn(C(C)OCCN2C(=O)c3ccccc3C2=O)c(=O)[nH]c1=O (stereo not given)
Reply | > 100 µM (inactive)

Ask | Follow-up item: CC(=O)O/N=C/c1ncccc1CO
Reply | > 100 µM (inactive)

Ask | Follow-up item: CN1C2=Nc3n(C)c4ccccc4[n+]3CN2c2ccccc21
Reply | 35.3 µM (inactive)

Ask | Follow-up item: Fc1ccccc1C1CC(c2ccc3ccccc3c2)=Nc2ccccc2S1 (stereo not given)
Reply | > 100 µM (inactive)

Hello, the source for this data is ChEMBL document CHEMBL1201862, in case you need it.
